Origin of values: ChEMBL document CHEMBL1154785

Assay: Binding affinity to Mycobacterium tuberculosis adenosine-5'-phosphosulfate reductase assessed as S-sulfocysteine formation at pH 7.5 by single turnover method in presence of 0.5 mM MgCl2
recorded-metric: pKd
In textbook form, pKd equals minus log to base ten of the concentration in mol/L.

Could you tell me which pKd is on file for Nc1ncnc2c1ncn2[C@@H]1O[C@H](COP(=O)(O)OP(=O)(O)O)[C@@H](O)[C@H]1O [ADENOSINE DIPHOSPHATE] ? 5.14

Could you tell me which pKd is on file for Nc1ncnc2c1ncn2[C@@H]1O[C@H](COP(=O)(O)O)[C@@H](O)[C@H]1O [ADENOSINE PHOSPHATE] ? 4.68

###

Assay: Binding affinity to Mycobacterium tuberculosis adenosine-5'-phosphosulfate reductase assessed as S-sulfocysteine formation at pH 5.5 by single turnover method in absence of thioredoxin
So I've got a bunch of compounds here, and I need their pKd values.
In textbook form, pKd equals minus log to base ten of the concentration in mol/L.

Could you tell me which pKd is on file for Nc1ncnc2c1ncn2[C@@H]1O[C@H](COP(=O)(O)CS(=O)(=O)O)[C@@H](O)[C@H]1O ? 3.15

Could you tell me which pKd is on file for Nc1ncnc2c1ncn2[C@@H]1O[C@H](CO)[C@@H](O)[C@H]1O ? 2.52

Could you tell me which pKd is on file for Nc1ncnc2c1ncn2[C@@H]1O[C@H](COP(=O)(O)O)[C@@H](OP(=O)(O)O)[C@H]1O ? 3.11

Could you tell me which pKd is on file for Nc1ncnc2c1ncn2[C@@H]1O[C@H](COP(=O)(O)OS(=O)(=O)O)[C@@H](O)[C@H]1O ? 6.70

Could you tell me which pKd is on file for Nc1ncnc2c1ncn2[C@@H]1O[C@H](COP(=O)(S)OS(=O)(=O)O)[C@@H](O)[C@H]1O (mixture of isomers) ? 4.37

Could you tell me which pKd is on file for Nc1ncnc2c1ncn2[C@@H]1O[C@H](COP(=O)(O)OP(=O)(O)O)[C@@H](O)[C@H]1O [ADENOSINE DIPHOSPHATE] ? 5.37

Could you tell me which pKd is on file for Nc1ncnc2c1ncn2[C@@H]1O[C@H](COP(=O)(O)O)[C@@H](O)[C@H]1O [ADENOSINE PHOSPHATE] ? 5.27

Could you tell me which pKd is on file for Nc1ncnc2c1ncn2[C@@H]1O[C@H](COP(=O)(O)CP(=O)(O)O)[C@@H](O)[C@H]1O ? 4.57

###

Experiment: Binding affinity to Mycobacterium tuberculosis adenosine-5'-phosphosulfate reductase assessed as S-sulfocysteine formation at pH 9 by single turnover method
recorded-metric: Kd (µM)
Please respond with the number in µM and leave the unit unwritten.

Could you tell me which Kd is on file for Nc1ncnc2c1ncn2[C@@H]1O[C@H](COP(N)(=O)O)[C@@H](O)[C@H]1O ? 82

Could you tell me which Kd is on file for Nc1ncnc2c1ncn2[C@@H]1O[C@H](COP(=O)(O)NP(=O)(O)O)[C@@H](O)[C@H]1O ? 110

Could you tell me which Kd is on file for Nc1ncnc2c1ncn2[C@@H]1O[C@H](COP(=O)(O)OP(N)(=O)O)[C@@H](O)[C@H]1O ? 56.8

###

Assay: Displacement of [35S]APS from Mycobacterium tuberculosis adenosine-5'-phosphosulfate reductase by liquid scintillation counting
recorded-metric: pKd
In textbook form, pKd equals minus log to base ten of the concentration in mol/L.

Could you tell me which pKd is on file for Nc1ncnc2c1ncn2[C@@H]1O[C@H](COP(=O)(O)O)[C@@H](O)[C@H]1O [ADENOSINE PHOSPHATE] ? 5.27

###

So I've got a bunch of compounds here, and I need their Kd values.
Test: Binding affinity to Mycobacterium tuberculosis adenosine-5'-phosphosulfate reductase assessed as S-sulfocysteine formation at pH 7.5 by single turnover method in presence of 2 mM MgCl2
Please respond with the number in µM and leave the unit unwritten.

Could you tell me which Kd is on file for Nc1ncnc2c1ncn2[C@@H]1O[C@H](COP(=O)(O)O)[C@@H](O)[C@H]1O [ADENOSINE PHOSPHATE] ? 31

Could you tell me which Kd is on file for Nc1ncnc2c1ncn2[C@@H]1O[C@H](COP(=O)(O)OP(=O)(O)O)[C@@H](O)[C@H]1O [ADENOSINE DIPHOSPHATE] ? 20

###

Experiment: Binding affinity to Mycobacterium tuberculosis adenosine-5'-phosphosulfate reductase assessed as S-sulfocysteine formation at pH 5.5 by single turnover method in absence of thioredoxin
recorded-metric: pKi
In textbook form, pKi equals minus log to base ten of the concentration in mol/L.

Could you tell me which pKi is on file for Nc1ncnc2c1ncn2[C@@H]1O[C@H](COP(=O)(O)OS(=O)(=O)O)[C@@H](O)[C@H]1O ? 6.70

###

Test: Binding affinity to Mycobacterium tuberculosis adenosine-5'-phosphosulfate reductase assessed as S-sulfocysteine formation at pH 5.5 by single turnover method in absence of thioredoxin
So I've got a bunch of compounds here, and I need their Kd values.
Please respond with the number in µM and leave the unit unwritten.

Could you tell me which Kd is on file for O=P(O)(O)OC[C@H]1O[C@@H](O)[C@H](O)[C@@H]1O ? 93

Could you tell me which Kd is on file for Nc1ncnc2c1ncn2[C@@H]1O[C@H](CO)[C@@H](OP(=O)(O)O)[C@H]1O ? 3200

Could you tell me which Kd is on file for Nc1ncnc2c1ncn2[C@@H]1O[C@H](COP(=O)(O)NP(=O)(O)O)[C@@H](O)[C@H]1O ? 260

Could you tell me which Kd is on file for Nc1ncnc2c1ncn2[C@@H]1O[C@H](COP(=O)(O)OP(=O)(O)S)[C@@H](O)[C@H]1O (stereo partly specified) ? 0.15

Could you tell me which Kd is on file for Nc1ncnc2c1ncn2[C@@H]1O[C@H](COP(N)(=O)O)[C@@H](O)[C@H]1O ? 100
